Experiment: Ratio of the concentration of compound leading to a 50% inhibition of the rate of pig brain microtubule disassembly to that of compound 13a was determined
Format: functional
Catalogue of compounds with associated Ratio
READOUT LABEL: Ratio

• CC(=O)O[C@@]12CO[C@@H]1C[C@H](OC(=O)CN)[C@@]1(C)C(=O)[C@H](OC(=O)CN)C3=C(C)[C@@H](OC(=O)C(O)C(NC(=O)OC(C)(C)C)c4ccccc4)C[C@@](O)([C@@H](OC(=O)c4ccccc4)[C@H]21)C3(C)C (some centres not stated) = 1.4
• CC(=O)O[C@@]12CO[C@@H]1C[C@H](O)[C@@]1(C)C(=O)[C@H](O)C3=C(C)[C@@H](OC(=O)[C@H](O)[C@@H](NC(=O)OC(C)(C)C)c4ccccc4)C[C@@](O)([C@@H](OC(=O)c4ccccc4)[C@H]21)C3(C)C.O.O.O = 1
